Hey, just so you know, these numbers are from ChEMBL document CHEMBL1201862.

- System: RPMI-8226
- assay.details: NCI tumour cell line growth inhibition, 48 h
Active and inactive are the calls of the source. No stated cut-off is given here; in the data, active = GI50 up to about 1.1 µM and inactive = higher.
outcome.measure: GI50

>>> recorded_result("N/C(=N\\c1ccc(Cl)cc1)NS(=O)(=O)c1ccc(-c2ccccn2)s1")
"16.9 µM (inactive)"
>>> recorded_result("CCCCCCCCOCC(O)COC(=O)CCCCCCC (stereo not drawn)")
"27.1 µM (inactive)"
>>> recorded_result("COc1ccc2ccccc2c1C1NC(=O)c2ccccc2N1 (stereo not drawn)")
"0.659 µM (active)"
>>> recorded_result("Cc1ccc(NC(=O)CCc2nnc3s/c(=C\\C=C\\c4ccccc4)c(=O)n23)cc1")
"46.9 µM (inactive)"
>>> recorded_result("c1ccc([P+](CCC[P+](c2ccccc2)(c2ccccc2)c2ccccc2)(c2ccccc2)c2ccccc2)cc1")
"7.38 µM (inactive)"
>>> recorded_result("CC(=O)OCC1OC(N2C(=O)C(=O)c3cc(C)ccc32)C(OC(C)=O)C(OC(C)=O)C1OC(C)=O (stereo not drawn)")
"29.4 µM (inactive)"
>>> recorded_result("Cc1cc(O)c(C(=O)CC2(O)C(=O)Nc3c(Cl)cc(Cl)cc32)c(=O)o1 (stereo not drawn)")
"55.5 µM (inactive)"
>>> recorded_result("COC(=O)/C=C\\C(C#N)(C#N)/N=C/c1ccc(Br)s1")
"2.32 µM (inactive)"
>>> recorded_result("CC(C)Oc1c(O)c2c3c(oc(=O)n3C=CC2c2ccccc2F)c1OC(C)C (stereo not drawn)")
"17.3 µM (inactive)"
>>> recorded_result("COc1cc(/C=C2/SC(c3ccccc3)N(c3ccc(NC(C)=O)cc3)C2=O)cc(OC)c1OC (stereo not drawn)")
"36.8 µM (inactive)"
>>> recorded_result("Fc1ccc(Nc2nnc(-c3ccccn3)s2)cc1")
"> 100 µM (inactive)"
>>> recorded_result("O=C(O)CCS/C(=C\\C(SCCC(=O)O)c1ccc(Cl)cc1)c1ccc(Cl)cc1 (stereo not drawn)")
"31 µM (inactive)"
>>> recorded_result("CC1=NN(C(=O)c2ccccc2O)C(=O)/C1=C/c1ccc([N+](=O)[O-])cc1")
"1.88 µM (inactive)"

---

- Tested on: NCI-H226
- assay.details: NCI tumour cell line growth inhibition, 48 h
The source made the active and inactive calls. Rule as the data show it: active = GI50 up to about 1.1 µM and inactive = higher.
Let's look at some molecules and their measured GI50.
outcome.measure: GI50

>>> recorded_result("CN1C(=O)C(O)CC1c1ccccc1F (stereo not drawn)")
"> 100 µM (inactive)"
>>> recorded_result("CC(C)(C)c1nc2c(o1)/C(=N\\c1ccc(F)cc1)c1ccccc1C2=O")
"16.9 µM (inactive)"
>>> recorded_result("CCC(C)NC1=C(NC(C)=O)C(=O)c2ccccc2C1=O (stereo not drawn)")
"> 75 µM (inactive)"
>>> recorded_result("CC1=NN2C(=N)/C(=C/c3ccco3)C(=O)N=C2S1")
"> 100 µM (inactive)"
>>> recorded_result("C/C(=N\\O)C1CC2C=C(C#N)C1N(Cc1ccccc1)C2 (stereo not drawn)")
"> 100 µM (inactive)"
>>> recorded_result("CCCC1NC(=O)C(CC(C)C)NC(=O)c2cccc(n2)C(=O)NC(CC(C)C)C(=O)NC(CCC)C(=O)NC(C(=O)OC)CCCCNC1=O (stereo not drawn)")
"25.6 µM (inactive)"
>>> recorded_result("O=C(Cc1nc2ccccc2c(=O)n1-c1c(Cl)cccc1Cl)c1ccncc1")
"> 10 µM (inactive)"
>>> recorded_result("CCOC(=O)C(Cc1ccc([N+](=O)[O-])cc1)NC(=O)CC1c2ccccc2-c2ccccc21 (stereo not drawn)")
"> 100 µM (inactive)"

---

- System: OVCAR-5
- assay.details: NCI tumour cell line growth inhibition, 48 h
Active and inactive are the calls of the source. No stated cut-off is given here; in the data, active = GI50 up to about 1.1 µM and inactive = higher.
outcome.measure: GI50

>>> recorded_result("Cn1c(=O)oc2cc(C3CCC(=O)N3Cc3ccc(Cl)cc3)ccc21 (stereo not given)")
"> 100 µM (inactive)"
>>> recorded_result("COC(=O)/C=C/c1ccc2c(c1)CCC2")
"> 100 µM (inactive)"
>>> recorded_result("CC1SC2(CCCCC2)N(NC(=O)CSc2nc3ccc(Cl)cc3c(=O)n2-c2ccccc2)C1=O (stereo not given)")
"25.7 µM (inactive)"
>>> recorded_result("CCN(CC)C(=O)N[C@@H](CC(C)C)C(=O)NC")
"> 100 µM (inactive)"
>>> recorded_result("O=Nn1c2ccccc2c2ccccc21")
"> 100 µM (inactive)"
>>> recorded_result("Cc1cn(CC2=NCC(C)(C)N2)c(=O)[nH]c1=O")
"> 100 µM (inactive)"
>>> recorded_result("CCc1nc(N)c2nc(-c3ccc(C#N)cc3)oc2n1")
"> 100 µM (inactive)"
>>> recorded_result("CCn1nc(C)c2c1C(=O)NCC(=O)N2")
"> 100 µM (inactive)"
>>> recorded_result("Nc1n[n+]2cc(-c3ccccc3)n(CC(=O)c3ccccc3)c2s1")
"18.8 µM (inactive)"
>>> recorded_result("Clc1ccc(CCn2cncn2)cc1")
"> 100 µM (inactive)"

---

- System: U-251
- assay.details: NCI tumour cell line growth inhibition, 48 h
Calls of active or inactive are those of the source. Rule as the data show it: active = GI50 up to about 1.1 µM and inactive = higher.
Listed below: GI50 values for each entry.
outcome.measure: GI50

>>> recorded_result("COC(=O)C1CC/C(=N\\c2cccc(C(F)(F)F)c2)N1 (centres undefined)")
"> 100 µM (inactive)"
>>> recorded_result("O=C1c2cc3c(cc2CC12Cc1ccc4c(c1C2=O)CCC4)CCC3 (centres undefined)")
"33.6 µM (inactive)"
>>> recorded_result("Cc1ccnc(NC(=S)Nc2ccccc2Cl)c1")
"> 100 µM (inactive)"
>>> recorded_result("Cc1cc(C)nc(NS(=O)(=O)c2ccc(NC(=O)c3cccc4c(Nc5ccc(S(=O)(=O)Nc6nc(C)cc(C)n6)cc5)c5ccc(Cl)cc5nc34)cc2)n1")
"27.5 µM (inactive)"

---

- Test system: KM12
- assay.details: NCI tumour cell line growth inhibition, 48 h
The source made the active and inactive calls. Cut-off read from the data, not from the text of the source: active = GI50 up to about 1.1 µM and inactive = higher. Where a SMILES comes first, the peptide text is derived from it. [ ]: non-standard residue; d: D form. The star is where a group is joined. ξ: configuration not given here. X4 = COc1ccc(C(N*)c2ccc(OC)cc2)cc1; NMeF = CN[C@@H](Cc1ccccc1)C(=O)O; NMeD = CN[C@@H](CC(=O)O)C(=O)O; NMeV = CN[C@H](C(=O)O)C(C)C; ξNMeV = CNC(C(=O)O)C(C)C; Boc = CC(C)(C)OC(=O)*; ξNMeA = CNC(C)C(=O)O; ξV = CC(C)C(N)C(=O)O
Each item that follows carries a reported GI50.
outcome.measure: GI50

>>> recorded_result("CCC(C)NC1=C(NC(C)=O)C(=O)c2ccccc2C1=O (centres undefined)")
"> 75 µM (inactive)"
>>> recorded_result("O=C1Oc2cc(O)cc(/C=C/c3ccc(O)cc3)c2[C@@]12c1c(O)cc(O)cc1OC2c1cccc(O)c1 (some centres undefined)")
"25.6 µM (inactive)"
>>> recorded_result("C=CCN1C(=O)/C(=C/c2ccco2)N=C1SC1OC(COC(C)=O)C(OC(C)=O)C(OC(C)=O)C1OC(C)=O (centres undefined)")
"> 100 µM (inactive)"
>>> recorded_result("COC(CN(C(=O)c1ccccc1)C1CCC2(SCCS2)c2[nH]c3ccccc3c21)OC (centres undefined)")
"27.5 µM (inactive)"
>>> recorded_result("CCOC(=O)C(Cc1ccc([N+](=O)[O-])cc1)NC(=O)CC1c2ccccc2-c2ccccc21 (centres undefined)")
"> 100 µM (inactive)"
>>> recorded_result("Cc1ccccc1OC(C)C(=O)NN1C(=O)CSC1c1ccc(Cl)cc1 (centres undefined)")
"42.2 µM (inactive)"
>>> recorded_result("COC(=O)c1cccc2c1Oc1ccccc1S2")
"12 µM (inactive)"
>>> recorded_result("CC(C)(C)C(=O)C(C(c1ccccc1)N1CCOCC1)N1CCOCC1 (centres undefined)")
"> 100 µM (inactive)"
>>> recorded_result("COC(=O)[C@]1(C)CCC[C@]2(C)C3CC4OOC3(C=C4C(C)C)CCC21 (some centres undefined)")
"17.4 µM (inactive)"
>>> recorded_result("COc1ccc(C(NC(=O)C[C@@H](C(=O)N(C)C(C)C(=O)O)N(C)C(=O)[C@@H]2CCCN2C(=O)[C@H](C(C)C)N(C)C(=O)C(C(C)C)N(C)C(=O)[C@H](Cc2ccccc2)N(C)C(=O)C(NC(=O)OC(C)(C)C)C(C)C)c2ccc(OC)cc2)cc1 (some centres undefined) (Boc-[ξV][NMeF][ξNMeV][NMeV]P[NMeD](X4)[ξNMeA]-OH)")
"7.18 µM (inactive)"
>>> recorded_result("COc1cccc(C=C2N=C(C)N(n3c(-c4ccccc4)nc4ccccc4c3=O)C2=O)c1")
"> 100 µM (inactive)"
>>> recorded_result("Cc1occc(=O)c1O")
"> 100 µM (inactive)"
>>> recorded_result("Cc1ccc(/C(Cl)=C/C=C(C#N)C#N)cc1")
"5.22 µM (inactive)"
>>> recorded_result("CSc1c(C#N)c(=O)n(N)c2[nH]nc(C)c12")
"> 100 µM (inactive)"
>>> recorded_result("Nc1ncnc2c1ncn2C1C=C(CO)C(O)C1O (centres undefined)")
"0.264 µM (active)"
>>> recorded_result("CC(C)=CCc1cc2c(cc1O)OC[C@H]1c3cc4c(cc3O[C@@H]21)OCO4")
"39.6 µM (inactive)"
>>> recorded_result("COc1cc(C2C(Cl)C(=O)N2NC(=O)c2ccc(NC(C)=O)cc2)cc(Br)c1O (centres undefined)")
"> 100 µM (inactive)"
>>> recorded_result("O=C1/C(=C/c2cccc(Oc3ccccc3)c2)N=C(c2ccccc2)N1c1nc2ccc(Sc3ccccc3)cc2[nH]1")
"29.6 µM (inactive)"
>>> recorded_result("CCc1nnc(CC)n1-n1c(Cc2ccccc2)n[nH]c1=O")
"> 100 µM (inactive)"
